# Assay System: UBE2M; note: test concentration or dose not given here
# Protocol Description: reporter assay of Huesken 2005
# Measurement Conditions: siRNA
Oligonucleotides are written 5' to 3', each unit as a sugar letter and its base; * is a phosphorothioate linkage, no mark a phosphodiester; rarer units and linkages stand in square brackets, end groups in braces. Plain capitals give the bases only. d = 2'-deoxy (DNA); r = 2'-OH (RNA)
Property: normalised inhibition (eCFP-eYFP dual reporter) (%)
Reply numerically in %, unit not repeated.

sense rArCrGrArUrArArArCrUrCrCrArUrArArUrUrUdTdT / antisense rArArArUrUrArUrGrGrArGrUrUrUrArUrCrGrUdAdA | 82.2
sense rUrCrUrCrUrUrCrUrUrGrGrArGrCrCrCrArArCdTdT / antisense rGrUrUrGrGrGrCrUrCrCrArArGrArArGrArGrAdTdA | 69.7

// switching to the query substance
Q: Endpoint output: normalised inhibition (eCFP-eYFP dual reporter) of sense rUrArArGrGrUrGrGrGrCrCrArGrGrGrUrUrArCdTdT / antisense rGrUrArArCrCrCrUrGrGrCrCrCrArCrCrUrUrAdAdA . Value?
Ans: 69.9
